Tested on: SARS-CoV-2 variants
Test: microbe, parasite or virus in culture
Type: cell-based
Conditions: Severe acute respiratory syndrome coronavirus 2
Value Kind: IC50

IC50 reading for N#C[C@@]1(c2ccc3c(N)ncnn23)O[C@H](COC(=O)C2CCCCC2)[C@@H](O)[C@H]1O : < 340 nM

----------
# key: entry, value: IC50
System: SARS-CoV-2 variant B.1.617.2
Test: microbe, parasite or virus in culture
Assay type: cell-based
# unit: nM | format: bare number

Compound	IC50 / nM
N#C[C@@]1(c2ccc3c(N)ncnn23)O[C@H](COC(=O)C2CCCCC2)[C@@H](O)[C@H]1O	210

The compound N#C[C@@]1(c2ccc3c(N)ncnn23)O[C@H](CO)[C@@H](O)[C@H]1O [GS-441524, reference compound] showed IC50 equal to 1640
